Hello, the source for this data is patent US12655169B2, in case you need it.

The entries below are paired with their reported log10 of D50.
test: Particle size parameter test (BT-2900 image particle size analysis system); assay type: physicochemical; settings: quantity distribution, image particle size analysis
Use the decimal logarithm of D50 (μm).

O[C@@H]1[C@@H](O)[C@@H](O)CO[C@H]1O [Commercial product (T1)]: 1.80
O=C[C@H](O)[C@@H](O)[C@@H](O)CO [Example 12, L-arabinose]: 2.48
O=C[C@H](O)[C@@H](O)[C@@H](O)CO [Example 2, L-arabinose]: 2.26

Now examine the next entry.
# log10 of D50 of O[C@@H]1[C@@H](O)[C@@H](O)CO[C@H]1O [Commercial product (Y1)] = 1.48
